B1: Myocardin, residues 363 to 406; numbered along this chain, Q8IZQ8 (parent)
chain: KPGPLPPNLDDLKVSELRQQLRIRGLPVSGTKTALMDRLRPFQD

- Variants of: B1
- measurement-protocol: abundance fitness (aPCA) (normalised: wild type 0, dead -1); higher = more abundant; growth selection in yeast, the domain comes from the species named
- details: Homo sapiens
readout-type: abundance fitness
Output: the number by itself.

Guide cases for abundance fitness, answers given:
- sequence-text: "KPGPLPPNLDDLKVSELRQQLRIRGLPVSGTKTALVDRLRPFQD [M36V]"
  abundance fitness: -0.183
- sequence-text: "KPGPLPPNLDDLKVSELRQQLRIRGLPVSGNKTALMDRLRPFQD [T31N]"
  abundance fitness: 0.352
- sequence-text: "KPGPLPPNLDDLKVSELRQQLRIRGLPVSGTKTALMDRLRPFRD [Q43R]"
  abundance fitness: -0.232
- sequence-text: "KPGPLPPNLGDLKVSELRQQLRIRGLPVSGTKTALMDRLRPFQD [D10G]"
  abundance fitness: 0.311

Can you share its abundance fitness? I mean this variant: KPGPLPPNLDDLKVSELRQQLRIRGLPVSGTKTALMVRLRPFQD [D37V]
-0.632

May I ask what abundance fitness has been recorded for KPGPLPPNLDDLKVSELRQQLRIRGLPVSGTKFALMDRLRPFQD [T33F] ?
-0.144

abundance fitness for KPGPLPPNLDDLKVSELRQQLRIRGLPVSRTKTALMDRLRPFQD [G30R] ?
-0.876
